Provide the reported pIC50 of each item.
biological target: MAO-A (Rattus norvegicus); construct: served as the tissue source for mitochondrial MAO; from tissue; host or cells: whole brain minus cerebellum of male Wistar rats, P2 pellet (18,000 g); assay: biochemical; design: species or system rat (male Wistar)
Sequence (P21396 whole entry): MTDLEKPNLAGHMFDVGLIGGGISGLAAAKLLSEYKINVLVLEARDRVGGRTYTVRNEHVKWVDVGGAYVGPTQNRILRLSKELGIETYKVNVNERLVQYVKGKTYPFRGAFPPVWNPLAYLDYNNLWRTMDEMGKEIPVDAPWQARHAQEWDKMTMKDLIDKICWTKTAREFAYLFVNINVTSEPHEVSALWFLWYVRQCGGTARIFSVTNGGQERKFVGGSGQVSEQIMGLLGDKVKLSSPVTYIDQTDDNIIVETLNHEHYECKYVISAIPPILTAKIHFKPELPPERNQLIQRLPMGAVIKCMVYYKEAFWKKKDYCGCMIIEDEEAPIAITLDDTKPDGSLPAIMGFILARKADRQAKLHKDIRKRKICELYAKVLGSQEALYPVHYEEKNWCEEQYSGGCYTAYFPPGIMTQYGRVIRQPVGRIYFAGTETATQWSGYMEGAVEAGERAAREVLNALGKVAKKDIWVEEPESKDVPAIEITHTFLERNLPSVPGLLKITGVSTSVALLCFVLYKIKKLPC
On this scale, pIC50 is minus log10 of a concentration expressed in M (mol/L).

Ask: Query for MAO-A (Rattus norvegicus): what pIC50 does the record show for CNC(=O)Oc1ccc2c(c1)c1c(n2C)C(NC2CC2)CC1 (centres unmarked) ?
Result: 6.49

Ask: Query CNC(=O)Oc1ccc2c(c1)c1c(n2C)C(=NC2CC2c2ccccc2)CC1 (centres unmarked) next
Result: 4.82

----------
molecular target: MAO-B (Rattus norvegicus, UniProt P19643); construct: served as the tissue source for mitochondrial MAO; from tissue; host or cells: whole brain minus cerebellum of male Wistar rats, P2 pellet (18,000 g); assay: biochemical; design: species or system rat (male Wistar)
Sequence (P19643 whole entry): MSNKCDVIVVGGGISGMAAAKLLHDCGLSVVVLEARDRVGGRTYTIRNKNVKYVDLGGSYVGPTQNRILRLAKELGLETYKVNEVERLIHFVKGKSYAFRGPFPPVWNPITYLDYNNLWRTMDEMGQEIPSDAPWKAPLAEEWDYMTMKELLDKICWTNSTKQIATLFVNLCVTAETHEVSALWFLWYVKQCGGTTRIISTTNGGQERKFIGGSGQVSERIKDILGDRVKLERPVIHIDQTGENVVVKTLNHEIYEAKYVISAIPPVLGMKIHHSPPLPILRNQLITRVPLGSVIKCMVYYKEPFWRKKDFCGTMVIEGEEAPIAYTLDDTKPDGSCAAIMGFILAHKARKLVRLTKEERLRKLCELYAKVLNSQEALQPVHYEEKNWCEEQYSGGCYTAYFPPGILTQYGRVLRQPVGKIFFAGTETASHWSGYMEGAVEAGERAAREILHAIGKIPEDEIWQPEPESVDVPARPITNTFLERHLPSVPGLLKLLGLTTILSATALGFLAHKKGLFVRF
Answer each item with its documented IC50.
Enter your answer as a number in nM; do not include the unit.

Ask: Which IC50 is listed for CNC(=O)Oc1ccc2c(c1)c1c(n2C)C(NC2CC2)CC1 (centres unmarked) ?
Result: 420

Ask: Repeat with CNC(=O)Oc1ccc2c(c1)c1c(n2C)C(=NC2CC2c2ccccc2)CC1 (centres unmarked)
Result: 3700

----------
molecular target: Brain AChE (acetylcholinesterase) (Rattus norvegicus, UniProt P37136); construct: corpora striata dissected free, weighed and homogenized in 19 volumes; test: biochemical; settings: rat striatum, read-out: Inhibitory Concentration, IC50
Sequence (P37136 32-614): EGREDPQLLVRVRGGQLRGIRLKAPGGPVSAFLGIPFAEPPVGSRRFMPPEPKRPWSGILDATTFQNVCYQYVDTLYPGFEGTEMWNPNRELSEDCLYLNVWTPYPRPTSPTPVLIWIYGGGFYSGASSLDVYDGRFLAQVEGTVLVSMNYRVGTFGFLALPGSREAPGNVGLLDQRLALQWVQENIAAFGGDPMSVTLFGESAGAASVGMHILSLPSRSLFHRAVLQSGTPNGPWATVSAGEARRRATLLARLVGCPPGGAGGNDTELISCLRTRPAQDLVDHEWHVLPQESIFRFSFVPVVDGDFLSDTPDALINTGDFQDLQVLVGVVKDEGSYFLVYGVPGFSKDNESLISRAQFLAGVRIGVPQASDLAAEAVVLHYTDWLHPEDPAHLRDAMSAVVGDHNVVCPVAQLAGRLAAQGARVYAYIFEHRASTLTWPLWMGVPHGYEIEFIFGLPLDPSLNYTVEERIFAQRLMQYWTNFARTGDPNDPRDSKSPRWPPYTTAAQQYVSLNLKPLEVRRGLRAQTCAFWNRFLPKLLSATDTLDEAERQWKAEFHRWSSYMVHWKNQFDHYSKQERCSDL
measurement_type: IC50 (µM)
Respond with the bare value in µM.

Ask: For Brain AChE (acetylcholinesterase) (Rattus norvegicus, UniProt P37136), provide IC50 of CNC(=O)Oc1ccc2c(c1)c1c(n2C)C(NC2CC2)CC1 (stereo not shown) please.
Result: 3.5
